Tested on: Mycobacterium tuberculosis
assaySummary: Antituberculosis activity against Mycobacterium tuberculosis H37Rv
Format: functional

molecule: C[C@H]1COC2(CCN(c3nc(=O)c4cc(C(F)(F)F)cc([N+](=O)[O-])c4s3)CC2)O1 [BTZ-043]
measurementTarget: Mycobacterium tuberculosis
MIC / µg/mL: 0.001

molecule: COC(=O)c1nc(N)sc1Cc1ccccc1
measurementTarget: Mycobacterium tuberculosis
MIC / µg/mL: 0.06

molecule: Cc1sc(N)nc1C(=O)O
measurementTarget: Mycobacterium tuberculosis
MIC / µg/mL: 0.06

molecule: C[C@@H]1COC2(CCN(c3nc(=O)c4cc(C(F)(F)F)cc([N+](=O)[O-])c4s3)CC2)O1
measurementTarget: Mycobacterium tuberculosis
MIC / µg/mL: 0.001
